- tested.on: RXRΓ (Mus musculus)
- Construct: expressed in transfected cells; host or cells: CV1 cells
- Sequence (P28705 whole entry): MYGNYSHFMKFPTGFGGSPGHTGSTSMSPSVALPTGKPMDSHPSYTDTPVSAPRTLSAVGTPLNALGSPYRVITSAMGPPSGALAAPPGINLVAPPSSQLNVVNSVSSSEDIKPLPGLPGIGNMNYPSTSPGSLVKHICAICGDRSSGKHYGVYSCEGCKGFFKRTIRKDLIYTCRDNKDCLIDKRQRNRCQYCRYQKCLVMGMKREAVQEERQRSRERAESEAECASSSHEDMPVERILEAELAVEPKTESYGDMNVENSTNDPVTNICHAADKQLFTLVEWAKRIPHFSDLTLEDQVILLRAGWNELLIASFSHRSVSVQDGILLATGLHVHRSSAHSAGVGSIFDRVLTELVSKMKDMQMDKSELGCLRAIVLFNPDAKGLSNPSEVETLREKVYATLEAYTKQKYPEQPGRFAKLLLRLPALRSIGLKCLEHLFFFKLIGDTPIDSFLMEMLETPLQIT
- assay.name: Holoreceptor transactivation assay, RXRΓ
- Format: cell-based
- condition: relative to all trans retinoic acid
recorded.endpoint: Transactivation Assay Afficacy (% of RA activity) RXRΓ

Qu. Quick one: Transactivation Assay Afficacy (% of RA activity) RXRΓ for CC(C=CC1CC1(C)c1ccc2c(c1)C(C)(C)CCO2)=CC(=O)O (stereo not shown) ?
Ans. 85.0 % of RA activity

Continuing:
Qu. Find the recorded Transactivation Assay Afficacy (% of RA activity) RXRΓ belonging to CC(C=CC1CC1(C)c1cc2c(cc1C)C(C)(C)CCC2(C)C)=CC(=O)O (stereo not shown) and report it.
Ans. 40.0 % of RA activity

Qu. Returns the measured Transactivation Assay Afficacy (% of RA activity) RXRΓ for the input compound. Input: CC(/C=C/c1ccccc1-c1ccc2c(c1)C(C)(C)CCC2(C)C)=C\C(=O)O
Ans. 50.0 % of RA activity

Qu. Bench note: what Transactivation Assay Afficacy (% of RA activity) RXRΓ did CC(C=CC1CC1(C)c1ccc2c(c1)C(C)(C)CCS2)=CC(=O)O (stereo not shown) show?
Ans. 73 % of RA activity

====

- tested.on: RARβ (Homo sapiens, UniProt P10826)
- Sequence (P10826 1-455): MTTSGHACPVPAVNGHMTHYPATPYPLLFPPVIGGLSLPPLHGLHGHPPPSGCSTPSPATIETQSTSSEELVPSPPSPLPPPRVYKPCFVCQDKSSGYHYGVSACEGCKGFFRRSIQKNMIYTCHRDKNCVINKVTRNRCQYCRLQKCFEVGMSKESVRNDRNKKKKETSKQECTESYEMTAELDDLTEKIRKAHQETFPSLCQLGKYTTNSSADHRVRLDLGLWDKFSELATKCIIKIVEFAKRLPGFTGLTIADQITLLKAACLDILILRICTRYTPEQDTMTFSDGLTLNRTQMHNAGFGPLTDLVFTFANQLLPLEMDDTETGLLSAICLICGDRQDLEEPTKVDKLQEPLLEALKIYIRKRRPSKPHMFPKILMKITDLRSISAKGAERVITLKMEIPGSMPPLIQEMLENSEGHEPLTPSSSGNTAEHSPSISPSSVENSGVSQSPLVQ
- assay.name: Holoreceptor transactivation assay, RARβ
- condition: CV1 cells, luciferase reporter, 36 hours incubation
The reader will find reported EC50 values listed item by item below.
Give just the numeric value; µM need not be written.

Qu. Which value of EC50 has been reported for CC(C=CC1CC1(C)c1ccc2c(c1)C(C)(C)CCO2)=CC(=O)O (stereo not shown) [Compound 21] in the records?
Ans. 1.8

Query molecule follows.
Qu. Sample CC(C=CC1CC1(C)c1ccc2c(c1)C(C)(C)CCS2)=CC(=O)O (stereo not shown) [Compound 17] — what was its EC50?
Ans. 0.048

====

- tested.on: UniProt:P19793
- Sequence (P19793 1-462): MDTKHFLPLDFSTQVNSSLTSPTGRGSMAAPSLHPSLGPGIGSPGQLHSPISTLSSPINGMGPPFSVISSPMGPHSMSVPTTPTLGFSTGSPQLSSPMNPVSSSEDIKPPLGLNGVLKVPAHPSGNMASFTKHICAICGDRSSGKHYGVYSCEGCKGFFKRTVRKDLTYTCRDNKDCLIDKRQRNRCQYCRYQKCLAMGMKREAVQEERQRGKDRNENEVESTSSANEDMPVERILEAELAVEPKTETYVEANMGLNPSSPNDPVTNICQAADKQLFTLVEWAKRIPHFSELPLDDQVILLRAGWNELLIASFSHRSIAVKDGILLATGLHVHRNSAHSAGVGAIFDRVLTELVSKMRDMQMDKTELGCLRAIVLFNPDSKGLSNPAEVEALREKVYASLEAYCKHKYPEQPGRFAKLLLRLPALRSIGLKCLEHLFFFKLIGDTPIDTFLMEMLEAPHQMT
- assay.name: Holoreceptor transactivation assay, RXRα
- condition: CV1 cells, luciferase reporter, 36 hours incubation
recorded.endpoint: EC50 (nM)
The response must be a number in nM with no trailing unit.

// known answers, use as guide
Qu. What does the data say about its EC50? Entry: CC(/C=C/c1ccccc1-c1ccc2c(c1)C(C)(C)CCC2(C)C)=C\C(=O)O [Compound 9]
Ans. 290

Qu. Any idea what its EC50 is? The compound is CC(C=CC1CC1(C)c1ccc2c(c1)C(C)(C)CCO2)=CC(=O)O (stereo not shown) [Compound 21]
Ans. 27

Qu. I have this compound here, CC(C=CC1CC1(C)c1cc2c(cc1C)C(C)(C)CCC2(C)C)=CC(=O)O (stereo not shown) [Compound 13] , and I need its recorded EC50.
Ans. 130

Next item in the queue.
Qu. Suppose we examine the compound CC(C=CC1CC1(C)c1ccc2c(c1)C(C)(C)CCS2)=CC(=O)O (stereo not shown) [Compound 17] ; what EC50 value has been reported?
Ans. 30
